- System: raffinose synthase
- Test: raffinose synthase activity with enzyme inhibitors or metal ions added
- Assay type: biochemical, cucumber
- Recorded Conditions: final concentration of 1 mM; with respect to activity when neither inhibitor nor metal ion was added
Label Condition met when Remaining activity (%) is at or above 40%; anything below gets Condition not met.

{"columns": ["Compound", "Class Name"],
 "data": [
  ["[Cl-].[Cl-].[Mg+2]", "Condition met"],
  ["[Ca+2].[Cl-].[Cl-]", "Condition met"],
  ["[Cl][Ni][Cl]", "Condition met"],
  ["[Cl][Cu][Cl]", "Condition met"],
  ["[Cl-].[Cl-].[Zn+2]", "Condition met"],
  ["[Cl][Mn][Cl]", "Condition not met"],
  ["NC(=O)CI [Iodoacetoamide, Iodoacetamide]", "Condition not met"]
]}

====

- System: raffinose synthase
- Test: raffinose synthase activity with enzyme inhibitors or metal ions added
- Type: biochemical, cucumber
- Recorded Conditions: final concentration of 1 mM

{"columns": ["Compound", "inhibiting effect on the enzyme activity"],
 "data": [
  ["CCN1C(=O)C=CC1=O [N-ethylmaleimide]", "remarkably inhibited"],
  ["[Cl][Cu][Cl]", "scarcely observed"],
  ["[Ca+2].[Cl-].[Cl-]", "scarcely observed"],
  ["NC(=O)CI [Iodoacetoamide, Iodoacetamide]", "remarkably inhibited"],
  ["[Cl-].[Cl-].[Mg+2]", "scarcely observed"]
]}
